# System: Plasmodium berghei
# experiment-notes: Screen against P. berghei liver stage (PbLuc), transformed with Luciferase, at 2uM
# Assay type: functional, HepG2
# setup-conditions: tested at 2 uM
The whole screen tested about 68,000 compounds, of which about 2,700 (4%) showed an effect of 50% or more. This is one part of a sample in which strong results are shown more often than they occur.
readout-type: INHIBITION (%)
Answer in %, number only, no unit symbol.

Reference set, count: 3
CN(Cc1ccc2nsnc2c1)CC1(O)CNCCOC1 (stereo not given); -1.57
Cc1cc(-c2nccs2)nc(C2CCN(Cc3ccc(F)cc3)CC2)n1; -12.17
COc1ncccc1CNC(=O)c1cc(C)on1; -18.38

Query :: Item Cc1c(Cl)c(CN2CCCC2Cn2cncn2)nc2ccccc12 (stereo not given) has what recorded INHIBITION?
Result :: -8.32

Query :: If you can, please state the reported INHIBITION value of `Cc1cc(C(=O)NCc2cccnc2OC(C)C)no1` .
Result :: 51.19

Query :: Field request: INHIBITION | item: CNC(=O)CN1C(=O)CN(C(=O)COC)CCC(OC)c2ccccc21 (stereo not given)
Result :: -8.2

Query :: Any idea what INHIBITION was measured for CCC(C)Oc1ccc(CNCCc2c[nH]cn2)cc1Cl (stereo not given) ?
Result :: 12.15

Query :: Which INHIBITION is reported for this molecule? CCN1C(=O)C(c2ccccc2)CC12CCN(c1ncccn1)CC2 (stereo not given)
Result :: 30.4
